Values from PubChem BioAssay AID1117319

Recorded inhibition by entry
- Experimental System: Virion infectivity factor (Human immunodeficiency virus type 1 group M subtype B (isolate BH10)) + Virion infectivity factor (Human immunodeficiency virus type 1 group M subtype B (isolate BRU/LAI)) + Virion infectivity factor (Human immunodeficiency virus type 1 group M subtype B (isolate PCV12)) + Virion infectivity factor (Human immunodeficiency virus type 1 group M subtype B (isolate HXB2)) + DNA dC->dU-editing enzyme APOBEC-3G (Homo sapiens) (UniProt P69720+P69721+P69722+P69723+Q9HC16)
- Method Notes: inhibitors of Vif binding to APOBEC3G peptide, primary screen, biochemical, TR-FRET, GST-Vif 1-94, biotin-A3G peptide, dose response retest (AID 1117319);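 further: Vif residues 1-94 fused to GST binding biotinylated APOBEC3G peptide 110-148; 0% = full assay without inhibitor and 100% = GST in place of GST-Vif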
- Assay Conditions: hits give high values
The campaign covered roughly 260,000 compounds. About 1,500 (0.58%) were called active. Inconclusive results (about 5%) are left out. The list is a sample of the results. Potency and affinity values are given separately.
Dear colleague, please return just the value in %, with no unit written.

// known answers, use as guide
CN1CCN(C(=O)CSc2nc(-c3ccco3)cc(C(F)(F)F)n2)CC1 | -4.57
CC(C)NCC(O)c1ccc(NS(C)(=O)=O)cc1 (stereo unspecified) | 4.04
CCc1ccc(CN(C)C(C)C(=O)NCc2ccccc2)cc1 (stereo unspecified) | -5.54
O=C(COC(=O)C12CC3CC(CC(Br)(C3)C1)C2)N1CCOCC1 | 4.7
Nc1cc(C(=O)O)ccc1Nc1ccccc1 | 13
COc1ccc2nc(NC(=O)C3CCN(C(=O)c4ccc(F)cc4)CC3)sc2c1 | -12.6
CCOc1ccc(N/C(C)=C/C(=O)c2ccc(C)o2)cc1 | 1.46
CCOC(=O)C1=C(c2ccccc2)N=c2s/c(=C\c3ccc(O)cc3)c(=O)n2C1c1cccs1 (stereo unspecified) | -10.4

Form field: reported inhibition of `C=CCn1c(O)c(C(CC)=NCCN2CCOCC2)c(=O)[nH]c1=O`
65.5

Tell me the measured inhibition of CC(=O)Nc1ccccc1S(=O)(=O)CC1CC1(Cl)Cl (stereo unspecified) , please.
4.64

Requested field: inhibition. Item: `COc1ccc(C)c2sc(N(CCCN(C)C)C(=O)c3ccc(S(=O)(=O)N(C)C)cc3)nc12`
-2.34

Please report the recorded inhibition for `COC(=O)c1ccc(COc2nc(C)cc(C)c2C#N)o1` .
2.74

Param item = `CNC[C@H](O)c1cccc(O)c1` ; retrieve measured inhibition.
-0.43

May I ask what inhibition has been recorded for `CC(=O)c1ccc(Sc2nnnn2-c2ccccc2)c([N+](=O)[O-])c1` ?
7.06

// lookup inhibition for CN(c1ccc(OCC(=O)NC2CCC(O)CC2)cc1)S(=O)(=O)c1ccc(Cl)cc1 (stereo unspecified)
-2.71

If you can, please state the reported inhibition value of `Cc1ccc(C(=O)Nc2ccc3[nH]c(=O)[nH]c3c2)c(C)c1` .
-1.2

What does the data say about its inhibition? Entry: CCC(c1ccccc1)C(CC)c1cc(O)c(O)c(O)c1 (stereo unspecified)
27.3

Which inhibition is reported for this molecule? `Cc1ccc(SCC(=O)Nc2nnc(-c3ccco3)o2)cc1`
6.62

Return reported inhibition; argument: O=C(Nc1ccc(Cl)cc1)C(c1ccccc1)N(CCO)CCO (stereo unspecified)
-1.42

Look up inhibition for this molecule: CC1CC(C)(C)NC(=S)N1CCC(=O)N1CCc2ccccc2C1 (stereo unspecified)
-8.29

Please give the measured inhibition for this molecule: `O=C(O)C1=NN(c2ccccc2)C(=O)C1`
13.7

What value of inhibition has been recorded for this entry: `Cc1cc(C)n(CC(=O)NNC(=O)c2ccc(S(C)(=O)=O)cc2)n1`
-6.9

Reported inhibition, molecule `CCN(CC)C(=O)CSc1nnc(-c2ccccn2)n1-c1ccccc1OC` : ____
-5.38
